Origin of values: patent US20230257364A1

- system under test: AXL (Homo sapiens)
- experiment description: Enzymatic kinase assay (ADP-GLO), AXL
- Type: biochemical
- setup conditions: 10 μM ATP, poly (Glu4, Tyr1) substrate, 60 min room temperature, luminescence
endpoint: IC50

| molecular string | IC50 |
| --- | --- |
| Nc1nccc(Oc2ccc(NC(=O)c3ccnn(-c4ccc(F)cc4)c3=O)cc2F)c1/C=C/C(=O)N1CCNCC1 | < 1000 nM |

QUERY: Query IC50 on AXL (Homo sapiens) for Nc1nccc(Oc2ccc(NC(=O)c3ccnn(-c4ccc(F)cc4)c3=O)cc2F)c1C#CC1CCNCC1
RESULT: < 10 nM

QUERY: Query IC50 on AXL (Homo sapiens) for COCCN1CCN(C(C)(C)C#Cc2c(Oc3ccc(NC(=O)c4ccnn(-c5ccc(F)cc5)c4=O)cc3F)ccnc2N)CC1
RESULT: < 10 nM

QUERY: Query IC50 on AXL (Homo sapiens) for Nc1nccc(Oc2ccc(NC(=O)c3ccnn(-c4ccc(F)cc4)c3=O)cc2F)c1Cl
RESULT: < 1000 nM

---

- system under test: C-MET (Homo sapiens, UniProt P08581)
- Sequence (P08581 25-1390): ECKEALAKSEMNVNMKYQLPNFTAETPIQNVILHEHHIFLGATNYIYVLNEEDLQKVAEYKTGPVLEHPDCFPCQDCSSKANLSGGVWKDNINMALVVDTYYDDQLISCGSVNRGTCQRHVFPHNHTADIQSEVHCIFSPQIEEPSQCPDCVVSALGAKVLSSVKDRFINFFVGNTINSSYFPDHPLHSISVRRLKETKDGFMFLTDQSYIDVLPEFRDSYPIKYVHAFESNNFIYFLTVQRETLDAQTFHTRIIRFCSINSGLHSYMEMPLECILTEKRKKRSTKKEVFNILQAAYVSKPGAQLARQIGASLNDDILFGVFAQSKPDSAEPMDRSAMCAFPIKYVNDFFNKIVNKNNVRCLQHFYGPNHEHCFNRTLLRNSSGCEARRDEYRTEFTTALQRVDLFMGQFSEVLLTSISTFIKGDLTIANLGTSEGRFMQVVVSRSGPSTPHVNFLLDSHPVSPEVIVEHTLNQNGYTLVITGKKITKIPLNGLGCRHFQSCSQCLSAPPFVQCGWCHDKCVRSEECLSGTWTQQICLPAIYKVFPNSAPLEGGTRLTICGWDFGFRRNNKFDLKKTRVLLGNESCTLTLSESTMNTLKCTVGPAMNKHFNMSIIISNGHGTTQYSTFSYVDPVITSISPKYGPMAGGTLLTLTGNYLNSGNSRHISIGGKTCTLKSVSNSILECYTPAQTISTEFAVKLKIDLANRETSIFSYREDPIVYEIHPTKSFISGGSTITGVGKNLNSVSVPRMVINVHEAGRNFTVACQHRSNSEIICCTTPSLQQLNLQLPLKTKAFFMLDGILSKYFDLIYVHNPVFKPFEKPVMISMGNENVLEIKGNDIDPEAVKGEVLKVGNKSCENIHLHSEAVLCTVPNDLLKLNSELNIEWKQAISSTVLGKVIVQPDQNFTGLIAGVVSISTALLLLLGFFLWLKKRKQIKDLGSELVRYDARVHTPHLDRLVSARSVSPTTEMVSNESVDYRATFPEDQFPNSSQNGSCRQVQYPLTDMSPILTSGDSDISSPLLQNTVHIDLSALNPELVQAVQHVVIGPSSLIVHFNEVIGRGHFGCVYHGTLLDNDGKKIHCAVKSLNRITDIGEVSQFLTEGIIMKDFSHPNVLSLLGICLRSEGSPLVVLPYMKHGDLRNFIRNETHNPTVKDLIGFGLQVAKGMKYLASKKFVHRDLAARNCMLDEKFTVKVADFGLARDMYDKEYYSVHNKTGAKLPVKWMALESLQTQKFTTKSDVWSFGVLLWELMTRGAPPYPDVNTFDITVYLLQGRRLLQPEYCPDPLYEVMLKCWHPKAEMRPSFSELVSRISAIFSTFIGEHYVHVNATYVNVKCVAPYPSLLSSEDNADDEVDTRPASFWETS
- experiment description: Enzymatic kinase assay (ADP-GLO), C-MET
- Format: biochemical
- setup conditions: 10 μM ATP, poly (Glu4, Tyr1) substrate, 60 min room temperature, luminescence; read-out: Enzymatic assay IC50 (nM) C-MET
endpoint: IC50

Examples from the recorded data:
| compound | IC50 |
| --- | --- |
| Nc1nccc(Oc2ccc(NC(=O)c3ccnn(-c4ccc(F)cc4)c3=O)cc2F)c1/C=C/C(=O)N1CCOCC1 [Example 4] | < 100 nM |
| CN1CCC(C#Cc2c(Oc3ccc(NC(=O)c4ccnn(-c5ccc(F)cc5)c4=O)cc3F)ccnc2N)CC1 [Example 26] | < 10 nM |
| CC(C)(C#Cc1c(Oc2ccc(NC(=O)c3ccnn(-c4ccc(F)cc4)c3=O)cc2F)ccnc1N)N1CCOCC1 [Example 28] | < 10 nM |
| COCCN1CCC(C#Cc2c(Oc3ccc(NC(=O)c4ccnn(-c5ccc(F)cc5)c4=O)cc3F)ccnc2N)CC1 [Example 27] | < 10 nM |

QUERY: If you can, please state the reported IC50 value of Nc1nccc(Oc2ccc(NC(=O)c3cccn(-c4ccc(F)cc4)c3=O)cc2F)c1C#CC(=O)N1CCNCC1 [Example 15] .
RESULT: < 100 nM

---

Recorded measurements of IC50, one per entry
- system under test: MER (Homo sapiens, UniProt Q12866)
- Sequence (Q12866 21-999): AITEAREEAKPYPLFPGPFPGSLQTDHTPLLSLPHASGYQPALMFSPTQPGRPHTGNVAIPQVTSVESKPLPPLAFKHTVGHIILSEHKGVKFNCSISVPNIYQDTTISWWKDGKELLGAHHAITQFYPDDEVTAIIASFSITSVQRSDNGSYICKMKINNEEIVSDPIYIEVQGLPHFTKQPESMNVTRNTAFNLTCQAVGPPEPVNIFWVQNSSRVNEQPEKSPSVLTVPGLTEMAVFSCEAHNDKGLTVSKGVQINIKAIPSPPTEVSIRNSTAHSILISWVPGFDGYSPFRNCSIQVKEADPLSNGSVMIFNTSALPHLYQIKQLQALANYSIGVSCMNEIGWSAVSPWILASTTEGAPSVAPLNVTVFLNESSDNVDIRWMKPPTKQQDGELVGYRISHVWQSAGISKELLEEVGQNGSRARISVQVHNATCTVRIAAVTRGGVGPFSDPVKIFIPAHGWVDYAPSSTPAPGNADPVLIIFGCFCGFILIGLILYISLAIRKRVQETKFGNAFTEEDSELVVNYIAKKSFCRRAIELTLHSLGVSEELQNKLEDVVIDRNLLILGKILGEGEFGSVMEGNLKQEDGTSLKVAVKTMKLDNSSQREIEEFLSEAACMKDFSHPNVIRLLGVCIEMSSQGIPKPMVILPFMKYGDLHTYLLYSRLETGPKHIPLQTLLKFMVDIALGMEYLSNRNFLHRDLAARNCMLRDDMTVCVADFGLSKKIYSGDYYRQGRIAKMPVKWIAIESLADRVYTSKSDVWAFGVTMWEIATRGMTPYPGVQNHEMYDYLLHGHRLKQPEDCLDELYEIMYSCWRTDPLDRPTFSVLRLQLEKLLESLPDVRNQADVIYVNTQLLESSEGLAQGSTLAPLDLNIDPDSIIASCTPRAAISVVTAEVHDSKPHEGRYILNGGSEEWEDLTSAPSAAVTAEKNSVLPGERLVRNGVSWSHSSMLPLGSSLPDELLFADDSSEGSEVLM
- experiment description: Enzymatic kinase assay (ADP-GLO), MER
- Type: biochemical
- setup conditions: 10 μM ATP, poly (Glu4, Tyr1) substrate, 60 min room temperature, luminescence

Examples from the recorded data:
| molecular string | IC50 |
| --- | --- |
| COCCN1CCN(C(=O)C#Cc2c(Oc3ccc(NC(=O)c4ccnn(-c5ccc(F)cc5)c4=O)cc3F)ccnc2N)CC1 | < 10 nM |
| Nc1nccc(Oc2ccc(NC(=O)c3ccnn(-c4ccc(F)cc4)c3=O)cc2F)c1/C=C/C(=O)N1CCOCC1 | < 100 nM |
| N#Cc1c(Oc2ccc(NC(=O)c3ccnn(-c4ccc(F)cc4)c3=O)cc2F)ccnc1N | < 1000 nM |

QUERY: If you can, please state the reported IC50 value of CN1CCC(C#Cc2c(Oc3ccc(NC(=O)c4ccnn(-c5ccc(F)cc5)c4=O)cc3F)ccnc2N)CC1 .
RESULT: > 1000 nM

QUERY: If you can, please state the reported IC50 value of Nc1nccc(Oc2ccc(NC(=O)c3ccnn(-c4ccc(F)cc4)c3=O)cc2F)c1C#CC(=O)N1CCOCC1 .
RESULT: < 10 nM

---

- system under test: AXL (Homo sapiens)
- experiment description: Enzymatic kinase assay (ADP-GLO), AXL
- Assay type: biochemical
- setup conditions: 10 μM ATP, poly (Glu4, Tyr1) substrate, 60 min room temperature, luminescence
endpoint: IC50

| molecular string | IC50 |
| --- | --- |
| COC1CCN(C(=O)C#Cc2c(Oc3ccc(NC(=O)c4ccnn(-c5ccc(F)cc5)c4=O)cc3F)ccnc2N)CC1 | < 100 nM |
| N#Cc1c(Oc2ccc(NC(=O)c3ccnn(-c4ccc(F)cc4)c3=O)cc2F)ccnc1N | < 100 nM |

QUERY: If you can, please state the reported IC50 value of Nc1nccc(Oc2ccc(NC(=O)c3ccnn(-c4ccc(F)cc4)c3=O)cc2F)c1-c1ccc(Oc2ccccc2)cc1 .
RESULT: < 1000 nM

QUERY: If you can, please state the reported IC50 value of Nc1nccc(Oc2ccc(NC(=O)c3ccnn(-c4ccc(F)cc4)c3=O)cc2F)c1C#CC(=O)N1CCC(O)CC1 .
RESULT: < 10 nM

---

Recorded measurements of IC50, one per entry
- system under test: AXL (Homo sapiens, UniProt P30530)
- Sequence (P30530 26-894): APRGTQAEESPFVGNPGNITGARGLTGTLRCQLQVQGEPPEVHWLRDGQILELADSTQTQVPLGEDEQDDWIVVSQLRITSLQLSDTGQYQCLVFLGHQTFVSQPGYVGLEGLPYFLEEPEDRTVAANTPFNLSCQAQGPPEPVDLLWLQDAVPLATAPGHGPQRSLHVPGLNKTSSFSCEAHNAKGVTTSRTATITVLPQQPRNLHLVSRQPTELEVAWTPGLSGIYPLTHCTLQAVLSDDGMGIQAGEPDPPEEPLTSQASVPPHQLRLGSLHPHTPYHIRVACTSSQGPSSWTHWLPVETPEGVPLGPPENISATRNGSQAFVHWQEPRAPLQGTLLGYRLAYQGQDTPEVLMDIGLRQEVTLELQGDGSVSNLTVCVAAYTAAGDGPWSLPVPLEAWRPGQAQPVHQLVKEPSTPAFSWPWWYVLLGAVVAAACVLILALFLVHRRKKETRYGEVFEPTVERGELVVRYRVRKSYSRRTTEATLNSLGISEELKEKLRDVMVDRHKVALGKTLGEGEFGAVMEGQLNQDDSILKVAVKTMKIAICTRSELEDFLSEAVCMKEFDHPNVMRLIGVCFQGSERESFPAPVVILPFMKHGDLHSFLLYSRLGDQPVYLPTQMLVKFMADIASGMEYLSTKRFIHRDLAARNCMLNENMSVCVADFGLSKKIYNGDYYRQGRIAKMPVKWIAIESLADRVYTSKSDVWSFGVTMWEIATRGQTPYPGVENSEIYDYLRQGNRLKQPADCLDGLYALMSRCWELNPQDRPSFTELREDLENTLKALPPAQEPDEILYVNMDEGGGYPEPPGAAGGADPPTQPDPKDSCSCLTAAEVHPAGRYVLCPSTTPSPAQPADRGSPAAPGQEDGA
- experiment description: Enzymatic kinase assay (ADP-GLO), AXL
- Format: biochemical
- setup conditions: 10 μM ATP, poly (Glu4, Tyr1) substrate, 60 min room temperature, luminescence

Examples from the recorded data:
| molecular string | value measured |
| --- | --- |
| Nc1nccc(Oc2ccc(NC(=O)c3ccnn(-c4ccc(F)cc4)c3=O)cc2F)c1C#CC(=O)N1CCNCC1 | < 100 nM |
| Nc1nccc(Oc2ccc(NC(=O)c3cccn(-c4ccc(F)cc4)c3=O)cc2F)c1C#CC(=O)N1CCNCC1 | < 100 nM |
| Nc1nccc(Oc2ccc(NC(=O)c3ccnn(-c4ccc(F)cc4)c3=O)cc2F)c1C#CCCN1CCOCC1 | < 100 nM |
| CCCn1cc(-c2c(Oc3ccc(NC(=O)c4ccnn(-c5ccc(F)cc5)c4=O)cc3F)ccnc2N)cn1 | < 10 nM |
| Nc1nccc(Oc2ccc(NC(=O)c3ccnn(-c4ccc(F)cc4)c3=O)cc2F)c1C#CCN1CCOCC1 | < 1000 nM |
| CC(C)N1CCC(CC#Cc2c(Oc3ccc(NC(=O)c4ccnn(-c5ccc(F)cc5)c4=O)cc3F)ccnc2N)CC1 | < 100 nM |

QUERY: If you can, please state the reported IC50 value of COCCON(C)C(=O)C#Cc1c(Oc2ccc(NC(=O)c3ccnn(-c4ccc(F)cc4)c3=O)cc2F)ccnc1N .
RESULT: < 100 nM

QUERY: If you can, please state the reported IC50 value of CC(C)(C#Cc1c(Oc2ccc(NC(=O)c3ccnn(-c4ccc(F)cc4)c3=O)cc2F)ccnc1N)N1CCNCC1 .
RESULT: < 10 nM

QUERY: If you can, please state the reported IC50 value of Nc1nccc(Oc2ccc(NC(=O)c3ccnn(-c4ccc(F)cc4)c3=O)cc2F)c1/C=C/C(=O)N1CCOCC1 .
RESULT: < 1000 nM
